Data origin, for the record: the supplement of paper PMC7877785

test: self-splicing fitness, log relative to wild type (ln ratio); higher = more splicing; Tetrahymena group I intron in knt gene, E. coli kanamycin selection, DiMSum; sequences stand for … in CUCUCU…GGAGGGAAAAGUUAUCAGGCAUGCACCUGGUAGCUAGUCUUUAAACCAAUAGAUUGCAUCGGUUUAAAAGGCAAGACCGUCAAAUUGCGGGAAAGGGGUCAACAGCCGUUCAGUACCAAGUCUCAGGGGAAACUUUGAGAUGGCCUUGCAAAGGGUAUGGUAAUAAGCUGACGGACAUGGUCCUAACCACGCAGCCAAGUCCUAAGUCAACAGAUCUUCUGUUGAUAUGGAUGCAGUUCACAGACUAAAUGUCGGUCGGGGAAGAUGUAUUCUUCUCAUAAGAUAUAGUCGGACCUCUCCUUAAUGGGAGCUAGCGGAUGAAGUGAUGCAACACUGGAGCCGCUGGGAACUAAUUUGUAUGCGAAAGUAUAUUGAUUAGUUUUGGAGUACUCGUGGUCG; settings: 30 °C;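 further: selection with 25 µg/mL kanamycin versus none on LB agar overnight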
Parameter threshold = -2. Response is 1 (yes) when self-splicing fitness (ln) meets or exceeds it, else 0 (no).

sequence_content=UUGUAGCAAUAUUACGGUUA class_name="1 (yes)"
sequence_content=CUCAAGCAAUAUUACGCACU class_name="0 (no)"
sequence_content=GCCGAGCAAUAUUACGGCCC class_name="0 (no)"
sequence_content=AUUCAGCAAUAUUACGUAUA class_name="1 (yes)"
sequence_content=CCUCAGCAAUAUUACGCGCG class_name="0 (no)"
sequence_content=AUAUAGCAAUAUUACGAGUG class_name="0 (no)"
sequence_content=CAAGAGCAAUAUUACGAACU class_name="0 (no)"
sequence_content=CACGAGCAAUAUUACGUUGG class_name="0 (no)"
sequence_content=CUACAGCAAUAUUACGAACU class_name="0 (no)"
sequence_content=UGUUAGCAAUAUUACGAUUU class_name="1 (yes)"
sequence_content=AAAGAGCAAUAUUACGGGGA class_name="0 (no)"
sequence_content=UGCUAGCAAUAUUACGGCGU class_name="0 (no)"
sequence_content=CACAAGCAAUAUUACGGGCU class_name="0 (no)"
sequence_content=GGCAAGCAAUAUUACGACGC class_name="1 (yes)"
sequence_content=UUCCAGCAAUAUUACGGUAC class_name="0 (no)"
sequence_content=ACUCAGCAAUAUUACGAGAA class_name="1 (yes)"
